# Test system: U-251
# TEST NAME: NCI tumour cell line growth inhibition, 48 h
The source made the active and inactive calls. No stated cut-off is given here; in the data, active = GI50 up to about 1.1 µM and inactive = higher.
Possible outcomes: active, inactive

- COMPOUND: "O=C1C2Cc3ccccc3CN2C(=O)N1CCN1CCOCC1 (stereo unspecified)"
  DISCRETE LABEL: "inactive"
- COMPOUND: "CC(C(=O)NCNC(=O)c1ccccc1)C(=O)Nc1ccccc1 (stereo unspecified)"
  DISCRETE LABEL: "inactive"
- COMPOUND: "Cc1ccc(S(=O)(=O)SC(C)(C)C)cc1"
  DISCRETE LABEL: "inactive"
- COMPOUND: "CC1=C(C(=O)CC(=O)C(=O)NC2C3CC4CC(C3)CC2C4)Sc2ccccc2N1 (stereo unspecified)"
  DISCRETE LABEL: "inactive"
- COMPOUND: "COc1nc(C)nc2c1ncn2Cc1ccccc1"
  DISCRETE LABEL: "inactive"
- COMPOUND: "COc1ccc(C2CC(=O)Oc3ccccc3O2)cc1 (stereo unspecified)"
  DISCRETE LABEL: "inactive"
- COMPOUND: "CC12CC(c3ccccc3O1)C(C(=O)Nc1ccc(F)cc1)C(=O)N2 (stereo unspecified)"
  DISCRETE LABEL: "inactive"
- COMPOUND: "Cc1cc2c(cc1C)[n+]([O-])c(C#N)c(Cl)[n+]2[O-]"
  DISCRETE LABEL: "inactive"
- COMPOUND: "Cc1nc2c(n1Cc1ccc(Cl)cc1)C(=O)c1ccccc1C2=O"
  DISCRETE LABEL: "inactive"
- COMPOUND: "CC(C)=CC(=O)N(C)C1C2CN3CCC(O2)C13 (stereo unspecified)"
  DISCRETE LABEL: "inactive"
- COMPOUND: "CC1=C2C(=CC(C)(C)[C@@H]2O)C(=O)[C@](C)(O)C12CC2"
  DISCRETE LABEL: "active"

====

# Tested on: SN12C
# TEST NAME: NCI tumour cell line growth inhibition, 48 h
Calls of active or inactive are those of the source. Cut-off read from the data, not from the text of the source: active = GI50 up to about 1.1 µM and inactive = higher.
Items are presented alongside their recorded GI50.

- COMPOUND: "COc1ccc([N+](=O)[O-])c2c(NCCCN(C)C)ccnc12"
  GI50: "7.29 µM (inactive)"
- COMPOUND: "Cn1ccnc1Cn1cc(-c2cccc(-c3cn[nH]c3)c2)cn1"
  GI50: "69.7 µM (inactive)"
- COMPOUND: "O=C1c2ccccc2-c2cccc3ccc(Cc4ccccc4)c1c23"
  GI50: "> 100 µM (inactive)"
- COMPOUND: "C=C1C(C)C2C(Cc3ccccc3)NC(=O)C23C(OC(C)=O)/C=C/C(C)(O)CC(C)C/C=C/C3C1O (centres undefined)"
  GI50: "44.3 µM (inactive)"
- COMPOUND: "CCOC(=O)C1C(c2ccc([N+](=O)[O-])cc2)NC(c2ccc([N+](=O)[O-])cc2)C(C(=O)OC)S1(=O)=O (centres undefined)"
  GI50: "> 100 µM (inactive)"
- COMPOUND: "COc1ccc2c(ccc3c(C(=O)NCCCN(C)CCCNC(=O)c4cn(C)c5c4ccc4cc(OC)ccc45)cn(C)c32)c1"
  GI50: "1.57 µM (inactive)"
- COMPOUND: "COc1ccc(/C=C/C(=O)NCC(NC(=O)/C=C/c2ccc(OC)c(OC)c2)C(=O)O)cc1OC (centres undefined)"
  GI50: "> 100 µM (inactive)"
- COMPOUND: "COc1cc(=O)oc(/C=C/C=C/C=C/C(C)=C\\C2(C)OC(C)C(C)(O)C2O)c1C (centres undefined)"
  GI50: "> 100 µM (inactive)"
- COMPOUND: "Cn1c(=O)nc2n(-c3ccc(Cl)cc3)c(-c3ccccc3)c(-c3ccccc3)nc-2c1=O"
  GI50: "33.6 µM (inactive)"
- COMPOUND: "CC(C)CC(NC=O)C(=O)NC(Cc1ccccc1)NC(=O)CNC(=O)C(C)NC(=O)C(N)Cc1ccc(O)cc1 (centres undefined)"
  GI50: "> 100 µM (inactive)"
- COMPOUND: "COc1cc(CCNC2=CC(=O)c3nc[nH]c3C2=O)ccc1O"
  GI50: "19.1 µM (inactive)"
- COMPOUND: "Cc1cn(CC2=NCC(C)(C)CN2)c(=O)[nH]c1=O"
  GI50: "> 100 µM (inactive)"
- COMPOUND: "COc1ccc2c(c1)OCCCN(C)OC2c1ccccc1 (centres undefined)"
  GI50: "> 100 µM (inactive)"
- COMPOUND: "CC(=O)OCC1C(=O)OCC1C(=O)N1Cc2cc3ccccc3nc2C1 (centres undefined)"
  GI50: "5.27 µM (inactive)"
- COMPOUND: "Cc1ccc(S(=O)(=O)SC(C)(C)C)cc1"
  GI50: "38.9 µM (inactive)"
- COMPOUND: "COc1cccc(NC(=O)/C(Cc2nc3ccccc3nc2C)=N/NC(=O)C[n+]2ccccc2)c1"
  GI50: "> 100 µM (inactive)"
- COMPOUND: "CCOC(=O)C1(O)C(=O)C2=C3C(=O)OC(C4OC(=O)c5c(c(O)c(O)c(O)c5C31)-c1c(cc(O)c(O)c1O)C(=O)OC1COC(=O)c3cc(O)c(O)c(O)c3-c3c(cc(O)c(O)c3O)C(=O)OC14)[C@@H]2O (some centres undefined)"
  GI50: "17 µM (inactive)"
- COMPOUND: "COC(=O)C(/C(=N/NC(=O)c1ccncc1)C(=O)Nc1ccccc1OC)c1nc2ccc(Cl)cc2nc1O (centres undefined)"
  GI50: "> 100 µM (inactive)"
- COMPOUND: "O=C(O)C1CCN(Cc2oc(CO)cc(=O)c2O)C1 (centres undefined)"
  GI50: "> 100 µM (inactive)"
